pIC50: −log10 of the molar value.
Endpoint summary: pIC50, system: ALK tyrosine kinase receptor (Homo sapiens, UniProt Q9UM73), multiple sources combined.

INSERT INTO measurements (smiles_structure, target_of_assay, property, assay_value) VALUES
  ('Cc1c(Cl)cccc1OC[C@H](O)CNc1cc[nH]c(=O)c1-c1nc2cc3c(cc2[nH]1)C(=O)N(C1CCN(CCO)CC1)C3=O', 'ALK tyrosine kinase receptor (Homo sapiens, UniProt Q9UM73)', 'pIC50', '5.30 to 6.30'),
  ('N#Cc1c(-c2cc(Cl)c(O)cc2F)nc2[nH]nc(N)c2c1-c1ccc(N2CCNCC2)cc1', 'ALK tyrosine kinase receptor (Homo sapiens, UniProt Q9UM73)', 'pIC50', '> 7.00'),
  ('Cc1cc(C)n(C[C@H](O)CNc2cc[nH]c(=O)c2-c2nc3cc4c(cc3[nH]2)C(=O)N(C2CCN(C)CC2)C4=O)n1', 'ALK tyrosine kinase receptor (Homo sapiens, UniProt Q9UM73)', 'pIC50', '< 4.82');

Moving on to the next compound.
// query Request: pIC50, test system ALK tyrosine kinase receptor (Homo sapiens, UniProt Q9UM73), entry "CNC(=O)c1c(F)cc(F)cc1Nc1nc(Nc2cc3c(cc2OC)CCCN3C(=O)CN2CCCC2)nc2[nH]ccc12"
// result 8.40 to 8.90
